Organism: Rattus norvegicus
ASSAY_NAME: DrugMatrix - Regimen: Daily Repeat
Assay type: toxicity, organism-based, Sprague-Dawley
Set-up: regimen Daily Repeat, gender Male, age 6-8 weeks
MEASUREMENT_CONTEXT: in vivo, po, 0 mg/kg, 72 h, tissue Blood, route oral GAVAGE, dose level Control, time 3 day, vehicle 100 % WATER
MEASURE: ABSOLUTE EOSINOPHIL

{"COMPOUND": "CNNCc1ccc(C(=O)NC(C)C)cc1", "ABSOLUTE EOSINOPHIL": "0 CELLS/uL"}
{"COMPOUND": "NCCCCCC(=O)O", "ABSOLUTE EOSINOPHIL": "40 CELLS/uL"}
{"COMPOUND": "Cc1onc(-c2ccccc2Cl)c1C(=O)N[C@@H]1C(=O)N2[C@@H]1SC(C)(C)[C@@H]2C(=O)O", "ABSOLUTE EOSINOPHIL": "40 CELLS/uL"}
{"COMPOUND": "Cn1cc[nH]c1=S", "ABSOLUTE EOSINOPHIL": "0 CELLS/uL"}
{"COMPOUND": "COc1cc2nc(N3CCN(C(=O)C4COc5ccccc5O4)CC3)nc(N)c2cc1OC (stereo unspecified)", "ABSOLUTE EOSINOPHIL": "86.33 CELLS/uL"}

In the following, a different compound is considered.
Requested field: ABSOLUTE EOSINOPHIL. Item: `N[C@@H](Cc1ccc(O)c(O)c1)C(=O)O`
86.33 CELLS/uL

###

Species on record: Rattus norvegicus
ASSAY_NAME: DrugMatrix - Regimen: Daily Repeat
Type: toxicity, organism-based, Sprague-Dawley
Design: regimen Daily Repeat, gender Male, age 6-8 weeks
MEASUREMENT_CONTEXT: in vivo, po, 0 mg/kg, 72 h, tissue Blood, route oral GAVAGE, dose level Control, time 3 day, vehicle .5 % CMC
The entries below are paired with their reported LEUKOCYTE COUNT.
I only need the number, in x10E3/uL, no unit after it.

Please review the following examples before continuing.
{"MOLECULE": "Nc1ccn([C@H]2CC[C@@H](CO)O2)c(=O)n1", "REPORTED_RESULT": 9.05}
{"MOLECULE": "CCCCc1oc2ccccc2c1C(=O)c1cc(I)c(OCCN(CC)CC)c(I)c1", "REPORTED_RESULT": 11.54}

Requested field: LEUKOCYTE COUNT. Item: `CCn1cc(C(=O)O)c(=O)c2cc(F)c(N3CCNCC3)cc21`
13.4

Requested field: LEUKOCYTE COUNT. Item: CCCN1C[C@H](CSC)C[C@@H]2c3cccc4[nH]cc(c34)C[C@H]21 [PERGOLIDE]
13.4

Requested field: LEUKOCYTE COUNT. Item: `Cc1nc2n(c(=O)c1CCN1CCC(c3noc4cc(F)ccc34)CC1)CCCC2`
11.54

Requested field: LEUKOCYTE COUNT. Item: `COc1nc(C)nc(Cl)c1N=C1NCCN1`
17.57

Requested field: LEUKOCYTE COUNT. Item: `CCOP(=S)(OCC)Oc1nc(Cl)c(Cl)cc1Cl`
11.39

Requested field: LEUKOCYTE COUNT. Item: `ClC(Br)Br`
16.87

Requested field: LEUKOCYTE COUNT. Item: C1CCC(C(CC2CCCCN2)C2CCCCC2)CC1 (stereo not given)
8.79

Requested field: LEUKOCYTE COUNT. Item: `O=C(CCCN1CC=C(n2c(=O)[nH]c3ccccc32)CC1)c1ccc(F)cc1`
9.83

###

Species: Rattus norvegicus
ASSAY_NAME: DrugMatrix - Regimen: Daily Repeat
Assay type: toxicity, organism-based, Sprague-Dawley
Design: regimen Daily Repeat, gender Male, age 6-8 weeks
MEASUREMENT_CONTEXT: in vivo, po, 32 mg/kg, 72 h, tissue Blood, route oral GAVAGE, dose level Low, time 3 day, vehicle .5 % CMC
MEASURE: ABSOLUTE BASOPHIL (cells/µL)
I only need the number, in cells/µL, no unit after it.

Requested field: ABSOLUTE BASOPHIL. Item: C1CCC(C(CC2CCCCN2)C2CCCCC2)CC1 (stereo unspecified)
20

###

Organism: Rattus norvegicus
ASSAY_NAME: DrugMatrix - Regimen: Daily Repeat
Assay type: toxicity, organism-based, Sprague-Dawley
Set-up: regimen Daily Repeat, gender Male, age 6-8 weeks
MEASUREMENT_CONTEXT: in vivo, po, 0 mg/kg, 120 h, tissue Plasma, route oral GAVAGE, dose level Control, time 5 day, vehicle .5 % CMC
Decision: CREATINE PHOSPHOKINASE compared against 200 u/L; not below it gives y, below it gives n.

{"MOLECULE": "COc1nc(C)nc(Cl)c1N=C1NCCN1 [MOXONIDINE]", "CATEGORY": "y"}

Entry Nc1ccn([C@H]2CC[C@@H](CO)O2)c(=O)n1 [ZALCITABINE] : is its CREATINE PHOSPHOKINASE no less than 200 u/L?
y

Entry O=C(CCCN1CC=C(n2c(=O)[nH]c3ccccc32)CC1)c1ccc(F)cc1 [DROPERIDOL] : is its CREATINE PHOSPHOKINASE no less than 200 u/L?
n

Entry CCOP(=S)(OCC)Oc1nc(Cl)c(Cl)cc1Cl [CHLORPYRIFOS] : is its CREATINE PHOSPHOKINASE no less than 200 u/L?
y

Entry `CC(C)(C)NC(=O)[C@@H]1C[C@@H]2CCCC[C@@H]2CN1C[C@@H](O)[C@H](Cc1ccccc1)NC(=O)[C@H](CC(N)=O)NC(=O)c1ccc2ccccc2n1` : is its CREATINE PHOSPHOKINASE no less than 200 u/L?
y

Entry NC1=NC(=O)C(c2ccccc2)O1 (centres undefined) [PEMOLINE] : is its CREATINE PHOSPHOKINASE no less than 200 u/L?
n

Entry N=C(N)NCCN1CCCCCCC1 [GUANETHIDINE] : is its CREATINE PHOSPHOKINASE no less than 200 u/L?
n

Entry Cc1nc2n(c(=O)c1CCN1CCC(c3noc4cc(F)ccc34)CC1)CCCC2 [RISPERIDONE] : is its CREATINE PHOSPHOKINASE no less than 200 u/L?
n

Entry CCCCc1oc2ccccc2c1C(=O)c1cc(I)c(OCCN(CC)CC)c(I)c1 [AMIODARONE] : is its CREATINE PHOSPHOKINASE no less than 200 u/L?
n

###

Organism: Rattus norvegicus
ASSAY_NAME: DrugMatrix - Regimen: Daily Repeat
Type: toxicity, organism-based, Sprague-Dawley
Set-up: regimen Daily Repeat, gender Male, age 6-8 weeks
MEASUREMENT_CONTEXT: in vivo, po, 0 mg/kg, 72 h, tissue Plasma, route oral GAVAGE, dose level Control, time 3 day, vehicle 100 % WATER
The entries below are paired with their reported TOTAL BILIRUBIN.
I only need the number, in mg/dL, no unit after it.

Please review the following examples before continuing.
{"COMPOUND": "CC(O)CO (stereo unspecified)", "REPORTED_RESULT": 0.2}
{"COMPOUND": "NCCCCCC(=O)O", "REPORTED_RESULT": 0.2}
{"COMPOUND": "COc1cc2nc(N3CCN(C(=O)C4COc5ccccc5O4)CC3)nc(N)c2cc1OC (stereo unspecified)", "REPORTED_RESULT": 0.15}
{"COMPOUND": "c1ccc([C@H]2CN3CCSC3=N2)cc1", "REPORTED_RESULT": 0.18}
{"COMPOUND": "N[C@@H](Cc1ccc(O)c(O)c1)C(=O)O", "REPORTED_RESULT": 0.15}

In the following, a different compound is considered.
Requested field: TOTAL BILIRUBIN. Item: `Nc1c2c(nc3ccccc13)CCCC2`
1.13

###

The entries below are paired with their reported NUCLEATED RED BLOOD CELLS.
Species: Rattus norvegicus
ASSAY_NAME: DrugMatrix - Regimen: Daily Repeat
Assay type: toxicity, organism-based, Sprague-Dawley
Parameters: regimen Daily Repeat, gender Male, age 6-8 weeks
MEASUREMENT_CONTEXT: in vivo, iv, 0 mg/kg, 120 h, tissue Blood, dose level Control, time 5 day, vehicle 100 % SALINE
Starred links: 1 amine or outer side, 2 acyl side, 3 side chain; linkers in the order of their positions; H or OH if unused. Positions of bridges follow the written chain, without caps; N, C: chain ends. Non-standard residues stand in square brackets, D forms with d. Residues, ends and D or L forms follow the SMILES beside them. Chains are numbered I, II in the order given. Actinocin(9to1) = Cc1c2oc3c(C)ccc(C(=O)[*:1])c3nc-2c(C(=O)[*:2])c(N)c1=O; NMeV = CN[C@H](C(=O)O)C(C)C; Sar = CNCC(=O)O

Please review the following examples before continuing.
{"COMPOUND": "Cc1c2oc3c(C)ccc(C(=O)N[C@@H]4C(=O)N[C@H](C(C)C)C(=O)N5CCC[C@H]5C(=O)N(C)CC(=O)N(C)[C@@H](C(C)C)C(=O)O[C@@H]4C)c3nc-2c(C(=O)N[C@@H]2C(=O)N[C@H](C(C)C)C(=O)N3CCC[C@H]3C(=O)N(C)CC(=O)N(C)[C@@H](C(C)C)C(=O)O[C@@H]2C)c(N)c1=O [DACTINOMYCIN] (I: T[dV]P[Sar][NMeV] / II: T[dV]P[Sar][NMeV]; ester I:1-I:C, II:1-II:C; linker I:N-II:N via Actinocin(9to1))", "REPORTED_RESULT": "0 /100WBC"}
{"COMPOUND": "COc1cc2c3cc1Oc1cc(ccc1O)C[C@@H]1c4c(cc(OC)c(O)c4Oc4ccc(cc4)C[C@@H]3N(C)CC2)CC[N+]1(C)C.[Cl-]", "REPORTED_RESULT": "0.17 /100WBC"}
{"COMPOUND": "Cc1ccc(N(CC2=NCCN2)c2cccc(O)c2)cc1 [PHENTOLAMINE]", "REPORTED_RESULT": "0.33 /100WBC"}

In the following, a different compound is considered.
Requested field: NUCLEATED RED BLOOD CELLS. Item: CC[C@]1(O)C[C@H]2CN(CCc3c([nH]c4ccccc34)[C@@](C(=O)OC)(c3cc4c(cc3OC)N(C=O)[C@H]3[C@@](O)(C(=O)OC)[C@H](OC(C)=O)[C@]5(CC)C=CCN6CC[C@]43[C@@H]65)C2)C1 [VINCRISTINE]
0 /100WBC
